Parameter: pIC50. Scope: all listed entries.
- System: Plasmodium falciparum
- METHOD DESCRIPTION: Antimalarial activity against Plasmodium falciparum 7G8 assessed as parasite growth inhibition after 48 hrs by standard growth inhibition assay
- Type: functional, organism-based
Lab note — pIC50 values are minus log10 of concentrations in M.

mol_smiles=Nc1cccc(-c2csc(NC(=O)CCCCCCC(=O)NO)n2)c1 reported_value=9.40

Plasmodium falciparum pIC50 of Cl.Nc1cccc(-c2csc(NC(=O)CCCCCCC(=O)NO)n2)c1 is 8.00

* * *

- TGT: Histone deacetylase
- METHOD DESCRIPTION: Inhibition of human HDAC in HeLa cells by fluorescent activity assay
- Type: cell-based
QUANTITY KIND: IC50 (nM)
The answer is to be given in nM; state only the numeric part.

mol_smiles=O=C(CCCCCC(=O)Nc1cccc2cccnc12)NS reported_value=44
mol_smiles=Cl.Nc1cccc(-c2csc(NC(=O)CCCCCCC(=O)NO)n2)c1 reported_value=7.6

So the reported IC50 for Nc1cccc(-c2csc(NC(=O)CCCCCCC(=O)NO)n2)c1 , on Histone deacetylase, turned out to be 3.9

With Histone deacetylase as the test system, O=C(CCCCCCC(=O)Nc1nc(-c2ccccc2)cs1)NO showed IC50 of 6.6

The reported IC50 value, Histone deacetylase, for O=C(CCCCCCC(=O)NC12CC3CC(CC(C3)C1)C2)NO reads 420

From: ChEMBL document CHEMBL1629675
